# System: Trichophyton rubrum
# run_description: In vitro activity against Trichophyton rubrum, MIC by twofold macro-broth dilution (Test Example 1)
# Type: cell-based
# condition_notes: IFO5808, 168 h, strain IFO 5808, 7 days at 27° C.
readout_name: MIC (ng/mL)
Form entry: value (ng/mL) — number only.

Task: Note MIC for the molecule shown: N#C/C(=C1/SC[C@@H](c2ccccc2Cl)S1)n1ccnc1 [Compound (A)]
Output: 2.5

Task: Note MIC for the molecule shown: CN(C/C=C/C#CC(C)(C)C)Cc1cccc2ccccc12 [TBF]
Output: 5

Task: Note MIC for the molecule shown: N#C/C(=C1/SCC(c2ccccc2Cl)S1)n1ccnc1 (racemic) [Racemic Compound (A)]
Output: 10

Task: Note MIC for the molecule shown: N#C/C(=C1/SC[C@@H](c2ccc(Cl)cc2Cl)S1)n1ccnc1 [Compound (B)]
Output: 2.5

From: patent US5900488A
